TARGET_ENTITY: UniProt Q8TBX8
Sequence (Q8TBX8 whole entry): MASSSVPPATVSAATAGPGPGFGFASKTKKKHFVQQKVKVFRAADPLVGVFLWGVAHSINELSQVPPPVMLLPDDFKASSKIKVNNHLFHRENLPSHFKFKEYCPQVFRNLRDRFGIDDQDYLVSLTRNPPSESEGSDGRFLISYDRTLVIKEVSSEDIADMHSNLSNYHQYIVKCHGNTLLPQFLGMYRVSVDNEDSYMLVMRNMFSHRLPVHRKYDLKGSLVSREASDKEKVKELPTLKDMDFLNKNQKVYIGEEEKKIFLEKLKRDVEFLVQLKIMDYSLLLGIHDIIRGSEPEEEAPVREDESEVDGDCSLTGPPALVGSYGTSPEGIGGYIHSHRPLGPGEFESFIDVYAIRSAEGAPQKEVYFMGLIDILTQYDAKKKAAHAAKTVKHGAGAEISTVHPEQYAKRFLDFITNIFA
PROCEDURE_TEXT: HiBiT PIP4K2C degradation assay in MOLT-4 cells (endogenous PIP4K2C C-terminally tagged with HiBiT)
Type: cell-based
Set-up: untagged in primary human PBMCs and monocyte-derived dendritic cells
TEST_CONTEXT: 24 hours incubation, MOLT-4, top concentration 10 micromolar; read-out: HiBIT-degradation MOLT4 PIP4k2C 24 hours DC50
Method: Example B-2: HiBiT PIP4K2C degradation assay […] To study PIP4K2C degradation, 384-well plates were plated with a 10-point dose response curve, 3-fold dilution, in duplicate with a top starting concentration of 10 micromolar. […] Luminescence was measured with a PHERAstar FSX plate reader (BMG Labtech, Cary, NC). […]
The entries below come with measured DC50 values attached.

Some molecules with recorded DC50:
O=C1CCC(Nc2ccc(C3CCN(CCC4CCN(C(=O)[C@@H]5CCC[C@H](Nc6ncc(F)c(-c7cccc(-n8ccccc8=O)c7)n6)C5)CC4)CC3(F)F)c(F)c2)C(=O)N1 (stereo partly shown) :: < 0.5 µM
O=C1CCC(Nc2ccc(N3CCC(N4CCC(CNC(=O)[C@H]5CCC[C@@H](Nc6ncc(F)c(-c7cccc(-n8ccccc8=O)c7)n6)C5)CC4)CC3)cc2)C(=O)N1 (relative stereo) :: < 0.5 µM
O=C1CCC(n2c(=O)oc3cc(C4CCN(CC5CCN(CC(=O)N6CCC(Nc7ncc(F)c(-c8cccc(-n9ccccc9=O)c8)n7)CC6)CC5)CC4)ccc32)C(=O)N1 (stereo not shown) :: < 0.5 µM
Cn1c(=O)n(C2CCC(=O)NC2=O)c2ccc(C3CCN(C(=O)CC4CCN(C(=O)[C@H]5CCC[C@@H](Nc6ncc(Cl)c(-c7cccc(-c8ccccc8)c7)n6)C5)CC4)CC3)cc21 (relative stereo) :: < 0.5 µM
Cn1nc(C2CCC(=O)NC2=O)c2ccc(C3CCN(C[C@H]4CC[C@H](NC(=O)[C@H]5CCC[C@@H](Nc6ncc(F)c(-c7cccc(-n8ccccc8=O)c7)n6)C5)CC4)CC3)cc21 (relative stereo) :: 1 to 5 µM
O=C1CCC(n2c(=O)oc3cc(C4CCN(CCC5CCN(C(=O)[C@@H]6CCC[C@H](Nc7ncc(F)c(-c8cccc(N9CCCCC9=O)c8)n7)C6)CC5)CC4)ccc32)C(=O)N1 (stereo partly shown) :: < 0.5 µM
O=C1CCC(n2c(=O)oc3cc(C4CCN(CC5CCN(CC(=O)N6CCC(Nc7ncc(Cl)c(-c8cccc(-c9ccc(F)cc9)c8)n7)CC6)CC5)CC4)ccc32)C(=O)N1 (stereo not shown) :: < 0.5 µM
O=C1CCC(N2Cc3cc(C4CCN(C5CCN(CC(=O)N6CCC(Nc7ncc(Cl)c(-c8cccc(-c9ccccc9)c8)n7)CC6)CC5)CC4)ccc3C2=O)C(=O)N1 (stereo not shown) :: < 0.5 µM

## Input Query: DC50; subject: O=C1CCC(n2c(=O)oc3cc(C4CCN(CCC5CCN(C(=O)[C@H]6CC[C@H](Nc7ncc(F)c(-c8cccc(-n9ccccc9=O)c8)n7)CC6)CC5)CC4)ccc32)C(=O)N1 (stereo partly shown)
## Output < 0.5 µM

## Input Query: DC50; subject: O=C1CCC(Nc2ccc(C3CCN(CC4CCN(CC(=O)N5CCC(Nc6ncc(Cl)c(-c7cccc(-c8ccccc8)c7)n6)CC5)CC4)CC3)cc2)C(=O)N1 (stereo not shown)
## Output 0.5 to 1 µM
